- test.method.notes: yeast display, Sf9 membrane polyspecificity reagent, FACS + sequencing; frameworks hold sequencing errors
measured.metric: polyreactivity (PSR sort gate)

Example entries begin here.
| construct.sequence | endpoint.value |
| --- | --- |
| QVQLVESGGGLVQAGASLRLSCAASGRIFRYNAMGWYRQAPGKERELVAAISSGGSRNYADSVKGRFTTSRDNSKNTVYLQMNSLKPEDTAVYYCNAESVHRYPGWGYDYWGHGTQVTVSS | low polyreactivity |
| QVQLVESGGGLVQAGGSLRLSCAASGLIFHKNAMGWYRQAPGKERELVATITSGGNTNYADSVKGRFTISRDNAKNTVYLQMNSLKPEDTAVYYCAKDTHLLNEHSGTSREYDYWGQGTQVTVSS | low polyreactivity |
| QVQLVESGGGLVHAGGSLRLSCAASGYIIGYYTMGWYRQAPGKERELVATIRSGGSTYYADSVKGRFTISRDNANNSVYLQINSLKPEDTAVYYCAKRVRRISEYGYWGQGTHVTVSS | high polyreactivity |
| QVQLVESGGGLVQAGGSLRLSCAASGFTYLYNAMGWYRQAPGKERELVASINSGGSTNYADSVKGRFTISRDNAKNSVYLQMNSLKPEDTAVYFCNAKRLVRKGDYWGQGTQVTVSS | low polyreactivity |
| QVQLVESGGGLVQAGGSLRLSCAASGSIFDVNAMGWYRQAPGKQRELVAAISDSGGSTYYADSVKGRFTISRDNAKNTVYLQMNSLKPEDTAVYYCNADWSWYNYYDFDYWGQGTQVTVSS | low polyreactivity |
| QDQLVESGGGLDQAGGSLRLSCAASGNTFWPYAMGWYRQAPGKESEFVAAITFRGGSTYYADSVKGRFTISRDNAKNTVYLQMNSLKPEDTAVYYCNAERGVWSGYFGYDYWGQGTQVTVSS | low polyreactivity |

Q: Quick one: polyreactivity (PSR sort gate) of `QVQLVESGGGLVQAGGSLRLSCAASGRTFWWYAMGWYRQAPGKERELVAAITWSTGITFYADSVKGRFTISRDNAKNTVYLQMNILKPEDTAVYYCAADTGTFFGGFDYWGQGTQVTVSS` ?
Result: high polyreactivity

Q: Quick one: polyreactivity (PSR sort gate) of `QVQLVESSGGLVQAGGRLRLSCAASGSTFRGNAMGWYRQAPGKERELVAAITGSGGRTYYADSVKGRFTISRDNAKNTVYLQMNSLKPEDTAVYYCAARTPNIGGIYGYWGQGTQVSVSS` ?
Result: high polyreactivity

Q: Quick one: polyreactivity (PSR sort gate) of `QVQLVESGGGLVQAGGSLRLSCAASGFTFGYYTMGWYRQAPGKERELVASISWDGGSTYYADSVKGRFTISRDNAKNTVYLQMHSLKPEDTAVYYCATDDYDQLAVGAYDYWGQGTQVTVSS` ?
Result: low polyreactivity

Q: Quick one: polyreactivity (PSR sort gate) of `QVQLLESGGGLVQAGRSLRLSCAASGNTFDEYVKGWYRQAPGKESELDASIDWSGGGTYYADSVKGRFTISRDNAKNTVYLQMNSLKPEDTAVFYCNADYFDYSRTRYDYWGQGTQVNVSS` ?
Result: low polyreactivity

====

- test.method.notes: yeast display, Sf9 membrane polyspecificity reagent, FACS + sequencing; frameworks hold sequencing errors
measured.metric: polyreactivity (PSR sort gate)

Example entries begin here.
| construct.sequence | polyreactivity (PSR sort gate) |
| --- | --- |
| QVQLVESGGGLVQAGGSLRLSCAASGFIFRSYAMGWYRPAPGKERELVAAITKSGGRTYYADSVKGRFTISRDNAKNTVYLQMNSLKPEDTAVYYCAADQTSYSTSRRYDYWGQGTQVTVSS | high polyreactivity |
| QVQLVESGGGLVQAGGSLRLSCAASGRTFEGYTMGWYRQAPGKERELVAAITWRGTSTYYADSVKGRFTISRDNAKNTVYLQMNSLKPEDTAVYYCNKVGWYHNYYYWGQGTQVTVSS | high polyreactivity |
| QVQLVESGGGLVQAGGSLRLSCAASGLTLSGYAMGWYRQAPGKERELVAAISYTGGSTYYADSVKGRFTISRDNAKNTVYLQMNSLKPEDTAVYYCAARAGSRSFDYWGQGTQVTVSS | high polyreactivity |
| QVQLVESGGGLVQAGGSLRLSCAASGSTFGGYAKGWYRQAPGKERELVAAMSQSGTRTYYADSVKGRFTISRDKAKNTVYLQMNSLKPEDTAVYYCAAEKRFRKYDNWGQGTQVTVSS | high polyreactivity |
| QVQLVESGGGLVQAGGSLRLSCAASGIIFSRYAMGWYRQAPGKERELVAAISSSGGTTYYADSVKGRFTISRDNAKNTVYLQMNSLKPEDTAVYYCYAPAFYKYKSFYAHSGYDYWGQGTQVTVSS | high polyreactivity |

Q: Quick one: polyreactivity (PSR sort gate) of `QVQLVESGGGLLQAGGSLRLSCAASGRNFRLYPMGWYRQAPGTERDFLAAITFSGGRTYYADSVKGRFTISRDNAKNTVYLQMKSLKPEDTAVYYCAARGQTGYYSGVGYWGLGTQVTVSS` ?
Result: high polyreactivity

Q: Quick one: polyreactivity (PSR sort gate) of `QVQLVESGGGLVQAGGSLRLSCAASGLIFDYYAMGWYRQAPGKERELVAAITSSSGITYYADSVKGRFTISRDNAKNTVYLQMNSLKPEDTAVYYCAAYTTYKLYEYDYWGQGTQVTVSS` ?
Result: low polyreactivity

Q: Quick one: polyreactivity (PSR sort gate) of `QVQLVESGGGLVQAGGSLRLSCAASGLIRYTYAMGWYRQAPGKERELVAAINSGGRTYYADSVKGRFTISRDNAKNTVYLQMNSLKPEYTAVYSCAADYGSRVRGFNYWGQGTQVTVSS` ?
Result: low polyreactivity

Q: Quick one: polyreactivity (PSR sort gate) of `QVQLVESGGGLVQAGGSLRLSCAASGRIFDYYAMGWYRQAPGKERELVARISIGGSTYADSVKGRFTISRDNAKNTVYLQMNSLKPEDSAVDYCADSTIRLVGYRTYWGPRYDYWGQGTQVTVSS` ?
Result: low polyreactivity

Q: Quick one: polyreactivity (PSR sort gate) of `QVQLVESGGGLVQAGGSLRLSCAASGITFPYYAMGWYRQAPGKERELVAAISAGGTRTYYADSVKGRFTISRDNAKNTVYLQMNSLKPEDTAVYYCAARVWPIVQNYYWGQGTQVTVSS` ?
Result: high polyreactivity

Q: Quick one: polyreactivity (PSR sort gate) of `QVQLVESGGGLVQAGGSLRLSCAASGITLSYNVMGWYRQEPGKEREFVAAITGGRTYYADSVKGRFTISRDNAKNTVYLQMNSLKPEDTAVYYCAADAPGHEYYYWGQGTQVTVSS` ?
Result: high polyreactivity

====

- test.method.notes: yeast display, Sf9 membrane polyspecificity reagent, FACS + sequencing; frameworks hold sequencing errors
measured.metric: polyreactivity (PSR sort gate)

Example entries begin here.
| construct.sequence | polyreactivity (PSR sort gate) |
| --- | --- |
| QVQLVESGGGLVQAGGSLRLSCAPSGIIFYYYAMGWYRQAPGKERELVAAITGTGSRTYYADSVKGRFTISRDNAKNTVYLQMNSLKPEDTAVYYCNARSFATGSKVPARGYWGQGTQVTVSS | high polyreactivity |
| QVQLVESGGGLVQAGGSLRLSSAASGRIFYYNAMGWYSQAPGKERELVAAITRGGSTYYADSVKGRFTISRDNAKNTVYLQMNSLKPEDTAVYYCAAYLDYWSYLNGQYDYWGQGTQVTVSS | high polyreactivity |
| QVQLVESGGGLVQAGGSLRLSCAASGFNFEAYTMGWYRQAPGKERELVASIDWDGGSTYYADSVKGRFTISRDNAKNTVYLQMNSLKPEDTAVYYCAADSRQYDELGDYDYWGQGTQVTVSS | low polyreactivity |
| QVQLVESGGGLVQAGGSLRLSCAASGSTMRFYAMGWYRQAPGKERELVAAISSSGSSTYYADSVKGRFTISRDNAKNTVYLQMNSLKPEDTAVYYCSGYGYWGQGTQLTVSS | high polyreactivity |

Q: Quick one: polyreactivity (PSR sort gate) of `QVQLVESGGGLVQAGGSLRLSSAASGRIFYNYAMGWYRQSPGKERELVAAISGSGGSTYYADSVKGRFTISRDNAKNTVYLQMNSLKPEDTAVFYCSTSGPQYYSRNFDYWGQGTQVTVSS` ?
Result: low polyreactivity

Q: Quick one: polyreactivity (PSR sort gate) of `QVQLVESGGGLVQAGGSLRLSCAASGSTFGYYAMGWYRQAPGKERELVAVIRRGGSTNYADSVKGRFTISRDNAKNTVYLQMNSLKPEDTAVYYCAKSQRGTVYSYYYWGQGTQVTVSS` ?
Result: high polyreactivity

Q: Quick one: polyreactivity (PSR sort gate) of `QVQLVESGGGLVQAGGSLRLSCAASGSIFRYNAMGWYRQAPGKERELVASINAGGGSTYYADSVKGRFTISRDNAKNTVYLLMNSLKPEDTAVYDCAAVAHSATRFRYYWRYDYWGQGTQVTVSS` ?
Result: high polyreactivity

Q: Quick one: polyreactivity (PSR sort gate) of `QVQLVESGGGLVQAGGSLRLSCAASGRIFYKYAMGWYRQAPGKERELVAAITTSGGSTYYADSVKGRFTISRDNAKNTVYLQMNSLKPEDTAVYYCARDLNGRFLTTGRGMDYWGQGTQVTVSS` ?
Result: high polyreactivity

Q: Quick one: polyreactivity (PSR sort gate) of `QVQLPESGGGLVQAGGSLRLICAASGYISTFSSEMGWYRQAPGKERELVASIAPGCTTSYADSVKGRFTISRDNAKNTVYLQMNSLKPEDTAVYYCGVDYTVPASFGYWGQGTQVTVSS` ?
Result: high polyreactivity
